Entries and their pIC50
Tested on: human APOE RNA
Assay: Dose-dependent reduction of human APOE RNA in HepG2 cells, electroporation, 20,000 cells per well, normalized to PPIA (Example 4, Table 11)
Type: cell-based
Details: reduction of human APOE RNA, HepG2 cells, 20,000 cells per well, approximately 24 hours, PPIA-normalized
pIC50: −log10 of the molar value. Strand notation (5' to 3'): a small letter for the sugar, then the base; units joined by * are phosphorothioate-linked, units joined directly phosphodiester-linked; [ ] holds rarer units or linkages, { } end groups; capitals alone tell only the bases. [ms] = mesyl phosphoramidate linkage; e = 2'-O-(2-methoxyethyl) (MOE); k = constrained ethyl (cEt); [5mC] = 5-methylcytosine; d = 2'-deoxy (DNA)
Attribute measured: pIC50

[[record]]
substance = "Aks^mCeoTeoTesGesGksTdsGdzAdzAdzTds^mCdsTdsTdsTdsAdzTksTksAesAe (kA*e[5mC]eTeT*eG*kG*dT*dG[ms]dA[ms]dA[ms]dT*d[5mC]*dT*dT*dT*dA[ms]kT*kT*eA*eA) [Compound No. 1809635]"
attribute_measured = "pIC50"
recorded_result = 6.68

[[record]]
substance = "Aes^mCeoTeoTesGesGksTdsGdzAdzAdzTds^mCdsTdsTdsTdsAdzTksTksAesAe (eA*e[5mC]eTeT*eG*kG*dT*dG[ms]dA[ms]dA[ms]dT*d[5mC]*dT*dT*dT*dA[ms]kT*kT*eA*eA) [Compound No. 1757576]"
attribute_measured = "pIC50"
recorded_result = 7.05

[[record]]
substance = "TezTeoGeoGksTdsGdzAdzAdzTds^mCdsTdsTdsTdsAdzTksTksAesAesAes^mCe (antisense eT[ms]eTeGkG*dT*dG[ms]dA[ms]dA[ms]dT*d[5mC]*dT*dT*dT*dA[ms]kT*kT*eA*eA*eA*e[5mC]) [Compound No. 1809814]"
attribute_measured = "pIC50"
recorded_result = 6.27

[[record]]
substance = "^mCksTksTksGdzGdzTdzGdzAdzAdzTds^mCdsTdsTdsTdsAdsTdsTksAksAdzAk (antisense k[5mC]*kT*kT*dG[ms]dG[ms]dT[ms]dG[ms]dA[ms]dA[ms]dT*d[5mC]*dT*dT*dT*dA*dT*kT*kA*dA[ms]kA) [Compound No. 1785602]"
attribute_measured = "pIC50"
recorded_result = 6.85


---

Test system: human APOE RNA
Assay: Dose-dependent inhibition of human APOE RNA in differentiated SH-SY5Y cells, free uptake, 5 days (Example 5)
Format: cell-based
Conditions: 20,000 nM, 5 days (Table 14)
Strand notation (5' to 3'): a small letter for the sugar, then the base; units joined by * are phosphorothioate-linked, units joined directly phosphodiester-linked; [ ] holds rarer units or linkages, { } end groups; capitals alone tell only the bases. [ms] = mesyl phosphoramidate linkage; e = 2'-O-(2-methoxyethyl) (MOE); k = constrained ethyl (cEt); [5mC] = 5-methylcytosine; d = 2'-deoxy (DNA)
# APOE RNA (% UTC) per entry
Attribute measured: APOE RNA (% UTC)

[[record]]
substance = "^mCksTksTksGdzGdzTdzGdzAdzAdzTds^mCdsTdsTdsTdsAdsTdsTksAksAdzAk (antisense k[5mC]*kT*kT*dG[ms]dG[ms]dT[ms]dG[ms]dA[ms]dA[ms]dT*d[5mC]*dT*dT*dT*dA*dT*kT*kA*dA[ms]kA) [Compound No. 1785602]"
recorded_result = 8

[[record]]
substance = "1778111: modified oligonucleotide complementary to human APOE RNA (eA*e[5mC]eTeTeG*kG*dT*dG[ms]dA[ms]dA*dT*d[5mC]*dT*dT*dT*dA[ms]eTeT*eA*eA; antisense) [compound 1778111]"
recorded_result = 17


---

The entries below are paired with their reported APOE RNA (% UTC).
Test system: human APOE RNA
Assay: Dose-dependent inhibition of human APOE RNA in HepG2 cells, electroporation, 50,000 cells per well, RT-PCR normalized to GAPDH (Example 4, Tables 8-10)
Type: cell-based
Conditions: 3,200 nM; HepG2, electroporation, 16-hour treatment
Description: Modified oligonucleotides selected from the examples above were tested at various doses in HepG2 cells. The modified oligonucleotides were tested in a series of experiments that had the same culture conditions. Each experiment is identified in separate tables below. HepG2 cells plated at a density of 50,000 cells per well were treated by electroporation with various concentrations of modified oligonucleotide as specified in the tables below. […]
Strand notation (5' to 3'): a small letter for the sugar, then the base; units joined by * are phosphorothioate-linked, units joined directly phosphodiester-linked; [ ] holds rarer units or linkages, { } end groups; capitals alone tell only the bases. [ms] = mesyl phosphoramidate linkage; e = 2'-O-(2-methoxyethyl) (MOE); k = constrained ethyl (cEt); [5mC] = 5-methylcytosine; d = 2'-deoxy (DNA)
Attribute measured: APOE RNA (% UTC)

[[record]]
substance = "1757544: mixed MOE/cEt gapmer TTGGTGAATCTTTATTAA, sugar ekeeeddddddddeeeee, linkages soossssssssssooss (eT*kTeGeG*eT*dG*dA*dA*dT*d[5mC]*dT*dT*dT*eAeTeT*eA*eA) [compound 1757544]"
recorded_result = 42

[[record]]
substance = "1757575 (eA*e[5mC]eTeT*kG*kG*dT*dG[ms]dA[ms]dA[ms]dT*d[5mC]*dT*dT*dT*dA[ms]kT*eT*eA*eA; antisense) [Compound 1757575]"
recorded_result = 37

[[record]]
substance = "1757585 (eT*eTeGkGkT*dG*dA*dA*dT*d[5mC]*dT*dT*dT*dA*dT*kTeAeA*eA*e[5mC]; antisense) [Compound 1757585]"
recorded_result = 32

[[record]]
substance = "1766559 (eT*eTeGeGeT*dG[ms]dA[ms]dA[ms]dT*d[5mC]*dT*dT*dT[ms]dA[ms]dT*kTkAeA*eA*e[5mC]; antisense) [Compound 1766559]"
recorded_result = 21

[[record]]
substance = "1757570 (eA*e[5mC]eTeTkG*dG*dT*dG*dA*dA*dT*d[5mC]*dT*dT*dT*kAkTeT*eA*eA; antisense) [Compound 1757570]"
recorded_result = 22


---

Tested on: human APOE RNA
Test: Dose-dependent inhibition of human APOE RNA in HepG2 cells, electroporation, 50,000 cells per well, RT-PCR normalized to GAPDH (Example 4, Tables 8-10)
Assay type: cell-based
Details: HepG2 cells, electroporation, 24-hour treatment, 82 nM, Table 8
Strand notation (5' to 3'): a small letter for the sugar, then the base; units joined by * are phosphorothioate-linked, units joined directly phosphodiester-linked; [ ] holds rarer units or linkages, { } end groups; capitals alone tell only the bases. [ms] = mesyl phosphoramidate linkage; e = 2'-O-(2-methoxyethyl) (MOE); k = constrained ethyl (cEt); [5mC] = 5-methylcytosine; d = 2'-deoxy (DNA)
As shown below, each of these substances has a reported APOE RNA (% UTC) 82 nM value.
Attribute measured: APOE RNA (% UTC) 82 nM

[[record]]
substance = "1778128: modified oligonucleotide complementary to human APOE RNA (eA*e[5mC]eTeTkGkG*dT*dG[ms]dA[ms]dA*dT*d[5mC]*dT*dT*dT*dA[ms]kTeT*eA*eA; antisense) [compound 1778128]"
recorded_result = "53 % UTC"

[[record]]
substance = "1778114: modified oligonucleotide complementary to human APOE RNA (eA*e[5mC]eTeTkG*kG*dT*dG[ms]dA[ms]dA*dT*d[5mC]*dT*dT*dT*dA[ms]eTeT*eA*eA; antisense) [compound 1778114]"
recorded_result = "78 % UTC"

[[record]]
substance = "1778123: modified oligonucleotide complementary to human APOE RNA (eA*e[5mC]eTeTeG*eG*dT*dG[ms]dA[ms]dA*dT*d[5mC]*dT*dT*dT*dA[ms]kTkT*eA*eA; antisense) [compound 1778123]"
recorded_result = "76 % UTC"

[[record]]
substance = "1778131: modified oligonucleotide complementary to human APOE RNA (eA*e[5mC]eTeTeGkG*dT*dG[ms]dA[ms]dA*dT*d[5mC]*dT*dT*dT*dA[ms]kTkT*eA*eA; antisense) [compound 1778131]"
recorded_result = "78 % UTC"


---

APOE RNA (% control) Cortex values, listed per item
Tested on: human APOE RNA
Assay: Activity in APOE C57BL/6NTac-Apoeem7250 knock-in mice, single ICV bolus, 8 weeks (Example 11)
Format: in vivo
Details: cortex; single ICV bolus 300 μg; 8 weeks post treatment; normalized to mouse Ppia
Strand notation (5' to 3'): a small letter for the sugar, then the base; units joined by * are phosphorothioate-linked, units joined directly phosphodiester-linked; [ ] holds rarer units or linkages, { } end groups; capitals alone tell only the bases. [ms] = mesyl phosphoramidate linkage; e = 2'-O-(2-methoxyethyl) (MOE); k = constrained ethyl (cEt); [5mC] = 5-methylcytosine; d = 2'-deoxy (DNA)
Attribute measured: APOE RNA (% control) Cortex

[[record]]
substance = "Aks^mCeoTeoTesGesGksTdsGdzAdzAdzTds^mCdsTdsTdsTdsAdzTksTksAesAe (kA*e[5mC]eTeT*eG*kG*dT*dG[ms]dA[ms]dA[ms]dT*d[5mC]*dT*dT*dT*dA[ms]kT*kT*eA*eA) [Compound No. 1809635]"
attribute_measured = "APOE RNA (% control) Cortex"
recorded_result = 26

[[record]]
substance = "^mCksTksTksGdzGdzTdzGdzAdzAdzTds^mCdsTdsTdsTdsAdsTdsTksAksAdzAk (antisense k[5mC]*kT*kT*dG[ms]dG[ms]dT[ms]dG[ms]dA[ms]dA[ms]dT*d[5mC]*dT*dT*dT*dA*dT*kT*kA*dA[ms]kA) [Compound No. 1785602]"
attribute_measured = "APOE RNA (% control) Cortex"
recorded_result = 27

[[record]]
substance = "1693052: 5-10-5 MOE gapmer TTGGTGAATCTTTATTAAAC, linkages sossszzzsssssssosss (antisense eT*eTeG*eG*eT*dG[ms]dA[ms]dA[ms]dT*d[5mC]*dT*dT*dT*dA*dT*eTeA*eA*eA*e[5mC]) [compound 1693052]"
attribute_measured = "APOE RNA (% control) Cortex"
recorded_result = 65

[[record]]
substance = "1778111: modified oligonucleotide complementary to human APOE RNA (eA*e[5mC]eTeTeG*kG*dT*dG[ms]dA[ms]dA*dT*d[5mC]*dT*dT*dT*dA[ms]eTeT*eA*eA; antisense) [compound 1778111]"
attribute_measured = "APOE RNA (% control) Cortex"
recorded_result = 41

